Tested on: L1210 leukemia ip in BDF1 mice, survival T/C
Test: NCI In Vivo Anticancer Drug Screen. Data for tumor model L1210 Leukemia (intraperitoneal) in B6D2F1 (BDF1) mice
Details: endpoint: mean survival time; dose: 400.0 mg/kg/injection; schedule: Q01DX001 (ip); vehicle: saline; higher = longer survival
Inconclusive results and toxic doses are left out.
We begin with a simple list: items and their reported T/C.

| compound | T/C |
| --- | --- |
| C=C(C(=C)C(=O)O)C(=O)O | 98 % of control |
| COC1OC(O)C(NC(=O)C(F)(F)F)CC1O (stereo unspecified) | 91 % of control |
| O=C(O)c1cc(=O)c2c(OCC(O)COc3cccc4oc(C(=O)O)cc(=O)c34)cccc2o1 | 94 % of control |
| O=C1NC(=O)C(c2ccccc2)(c2ccc(Cl)cc2Cl)N1 (stereo unspecified) | 95 % of control |
| c1ccc(C(CC(c2ccccc2)(c2ccccc2)c2ccccc2)(c2ccccc2)c2ccccc2)cc1 | 105 % of control |
| COC(=O)CC(c1ccc2c(c1)OCO2)N1CCOCC1 (stereo unspecified) | 104 % of control |
